- assayed.system: Thymidylate synthase (Homo sapiens)
- Sequence (P04818 whole entry): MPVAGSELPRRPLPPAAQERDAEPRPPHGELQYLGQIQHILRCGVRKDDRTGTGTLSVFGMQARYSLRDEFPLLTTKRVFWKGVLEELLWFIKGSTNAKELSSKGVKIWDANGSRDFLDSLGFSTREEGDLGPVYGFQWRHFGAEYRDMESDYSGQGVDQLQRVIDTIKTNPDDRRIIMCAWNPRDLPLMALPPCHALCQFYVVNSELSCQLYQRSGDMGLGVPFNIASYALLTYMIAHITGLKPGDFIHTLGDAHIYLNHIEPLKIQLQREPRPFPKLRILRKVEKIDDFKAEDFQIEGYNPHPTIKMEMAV
- assay.name: Inhibitory concentration against isolated Thymidylate synthase
outcome.measure: IC50

query.smiles | value.reported
Cc1nc(N)nc2[nH]cc(CCc3ccc(C(=O)N[C@@H](CCC(=O)O)C(=O)O)cc3)c12 | 1 µM
Cc1nc(N)nc2c1c(CCc1ccc(C(=O)N[C@@H](CCC(=O)O)C(=O)O)cc1)cn2Cc1ccccc1 | > 16 µM

Let us move to another entry and its IC50.
Exercise: # query: IC50 of entry "Nc1nc2[nH]cc(CCc3ccc(C(=O)N[C@@H](CCC(=O)O)C(=O)O)cc3)c2c(=O)[nH]1"
Key: 110 µM

====

- System: CCRF-CEM
- assay.name: Tested for their growth inhibition of CCRF-CEM human leukemia subline resistant as a result of decrease in uptake.
- Type: functional, cell-based
outcome.measure: EC50 (nM)
One number for each entry, in nM.

Exercise: # query: EC50 of entry "Cc1nc(N)nc2[nH]cc(CCc3ccc(C(=O)N[C@@H](CCC(=O)O)C(=O)O)cc3)c12"
Key: 575

====

- assayed.system: UniProt:P00469
- Sequence (P00469 whole entry): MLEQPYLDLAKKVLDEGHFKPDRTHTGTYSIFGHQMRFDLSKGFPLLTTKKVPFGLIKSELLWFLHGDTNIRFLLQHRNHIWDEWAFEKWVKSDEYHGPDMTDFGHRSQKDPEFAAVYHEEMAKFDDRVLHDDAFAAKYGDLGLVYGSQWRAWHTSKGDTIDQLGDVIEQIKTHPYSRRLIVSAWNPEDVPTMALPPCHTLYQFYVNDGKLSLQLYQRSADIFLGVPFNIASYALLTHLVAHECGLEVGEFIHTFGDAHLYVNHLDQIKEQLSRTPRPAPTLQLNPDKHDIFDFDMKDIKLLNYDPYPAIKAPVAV
- assay.name: Inhibitory concentration against isolated Lactobacillus casei Thymidylate synthase
outcome.measure: pIC50
Answers are plain numbers, as −log10 of the molar value.

Worked cases, answers included:
query.smiles | pIC50
Cc1nc(N)nc2[nH]cc(CCc3ccc(C(=O)N[C@@H](CCC(=O)O)C(=O)O)cc3)c12 | 5.05
Cc1nc(N)nc2c1c(CCc1ccc(C(=O)N[C@@H](CCC(=O)O)C(=O)O)cc1)cn2Cc1ccccc1 | 6.51
Cc1nc2ccc(CN(C)c3ccc(C(=O)N[C@@H](CCC(=O)O)C(=O)O)s3)cc2c(=O)[nH]1 | 5.10

Let us move to another entry and its pIC50.
Exercise: # query: pIC50 of entry "Nc1nc2[nH]cc(CCc3ccc(C(=O)N[C@@H](CCC(=O)O)C(=O)O)cc3)c2c(=O)[nH]1"
Key: 4.70

====

- assayed.system: Dihydrofolate reductase (Lactobacillus casei)
- Sequence (P00381 whole entry): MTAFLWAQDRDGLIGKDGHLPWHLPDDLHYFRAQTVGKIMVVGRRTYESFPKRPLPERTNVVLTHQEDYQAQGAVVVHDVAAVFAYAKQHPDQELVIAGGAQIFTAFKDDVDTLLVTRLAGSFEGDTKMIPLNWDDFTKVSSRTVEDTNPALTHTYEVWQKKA
- assay.name: Inhibitory concentration against isolated Lactobacillus casei Dihydrofolate reductase
outcome.measure: pIC50
Give bare numbers, as −log10 of the molar value.

// for each compound below, give its pIC50
1. Cc1nc(N)nc2[nH]cc(CCc3ccc(C(=O)N[C@@H](CCC(=O)O)C(=O)O)cc3)c12
2. Cc1cn([C@@H]2O[C@H](COP(=O)(O)O)[C@@H](O)[C@H]2O)c(=O)[nH]c1=O
3. Cc1nc(N)nc2c1c(CCc1ccc(C(=O)N[C@@H](CCC(=O)O)C(=O)O)cc1)cn2Cc1ccccc1

Key:
[7.62, 6.46, 4.72]

====

- Test system: CCRF-CEM
- assay.name: Tested for their growth inhibition of CCRF-CEM human leukemia subline resistant as a result of decrease polyglutamylation.
- Format: functional, cell-based
pIC50: −log10 of the molar value.
outcome.measure: pIC50

Exercise: # query: pIC50 of entry "Cc1nc(N)nc2c1c(CCc1ccc(C(=O)N[C@@H](CCC(=O)O)C(=O)O)cc1)cn2Cc1ccccc1"
Key: < 4.70

====

- assayed.system: Dihydrofolate reductase (Pneumocystis carinii, UniProt P16184)
- Sequence (P16184 whole entry): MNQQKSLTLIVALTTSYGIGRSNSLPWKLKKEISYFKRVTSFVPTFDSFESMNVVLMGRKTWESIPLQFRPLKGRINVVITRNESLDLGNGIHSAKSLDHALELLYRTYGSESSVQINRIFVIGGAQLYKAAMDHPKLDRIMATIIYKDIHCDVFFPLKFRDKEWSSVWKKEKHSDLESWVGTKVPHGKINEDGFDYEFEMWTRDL
outcome.measure: IC50 (nM)
Numbers only, in nM.

Exercise: # query: IC50 of entry "Cc1nc(N)nc2[nH]cc(CCc3ccc(C(=O)N[C@@H](CCC(=O)O)C(=O)O)cc3)c12"
Key: 1200
